Test system: ILM model substrate (silk granules)
APPLIED_CONDITIONS: 0.005 mg/mL in PBS pH 7.4
For each of the molecules below, state its Ratio λmax with MS and reference 588 nm.

These recorded examples may help you get a feel for the data.
molecular_string=CCCCCCCCCCCC[N+](C)(C)CCCNc1ccc(NCCC[N+](C)(C)CCCCCCCCCCCC)c2c1C(=O)c1ccccc1C2=O test_value=12%
molecular_string=CCCCCCCCCC[N+](C)(C)CCCNc1ccc(NCCC[N+](C)(C)CCCCCCCCCC)c2c1C(=O)c1ccccc1C2=O test_value=48%
molecular_string=CCCCCCCC[N+](C)(C)CCCNc1ccc(NCCC[N+](C)(C)CCCCCCCC)c2c1C(=O)c1ccccc1C2=O test_value=11%

Now look at this entry.
Please give measured Ratio λmax with MS and reference 588 nm of the following entry: CCCC[N+](C)(C)CCCNc1ccc(NCCC[N+](C)(C)CCCC)c2c1C(=O)c1ccccc1C2=O
54%

* * *

For each of the compounds below, state its Ratio λmax with MS and reference 632-635 nm.
Tested on: ILM model substrate (silk granules)
APPLIED_CONDITIONS: 0.005 mg/mL in PBS pH 7.4; 632 nm (7a), 634 nm (7b, 7d), 635 nm (7c)
Numbers only, in %.

molecular_string=CCCC[N+](C)(C)CCCNc1ccc(NCCC[N+](C)(C)CCCC)c2c1C(=O)c1ccccc1C2=O study_system="ILM model substrate (silk granules)" units_label=% test_value=54
molecular_string=CCCCCCCCCC[N+](C)(C)CCCNc1ccc(NCCC[N+](C)(C)CCCCCCCCCC)c2c1C(=O)c1ccccc1C2=O study_system="ILM model substrate (silk granules)" units_label=% test_value=37
molecular_string=CCCCCCCC[N+](C)(C)CCCNc1ccc(NCCC[N+](C)(C)CCCCCCCC)c2c1C(=O)c1ccccc1C2=O study_system="ILM model substrate (silk granules)" units_label=% test_value=9

Now look at this entry.
Please give measured Ratio λmax with MS and reference 632-635 nm of the following entry: CCCCCCCCCCCC[N+](C)(C)CCCNc1ccc(NCCC[N+](C)(C)CCCCCCCCCCCC)c2c1C(=O)c1ccccc1C2=O
13

* * *

Tested on: ILM model substrate (silk granules)
APPLIED_CONDITIONS: 0.01 mg/mL in PBS pH 7.4
For each of the compounds below, state its Ratio λmax with MS and reference 588 nm.
Form field: result (number plus unit)

These recorded examples may help you get a feel for the data.
compound="CCCCCCCCCCCC[N+](C)(C)CCCNc1ccc(NCCC[N+](C)(C)CCCCCCCCCCCC)c2c1C(=O)c1ccccc1C2=O [7d]" study_system="ILM model substrate (silk granules)" assay_metric="Ratio λmax with MS and reference 588 nm" test_value=7%
compound="CCCCCCCC[N+](C)(C)CCCNc1ccc(NCCC[N+](C)(C)CCCCCCCC)c2c1C(=O)c1ccccc1C2=O [7b]" study_system="ILM model substrate (silk granules)" assay_metric="Ratio λmax with MS and reference 588 nm" test_value=10%
compound="CCCCCCCCCC[N+](C)(C)CCCNc1ccc(NCCC[N+](C)(C)CCCCCCCCCC)c2c1C(=O)c1ccccc1C2=O [7c]" study_system="ILM model substrate (silk granules)" assay_metric="Ratio λmax with MS and reference 588 nm" test_value=21%

Now look at this entry.
Report its Ratio λmax with MS and reference 588 nm with ILM model substrate (silk granules) as the test system: CCCC[N+](C)(C)CCCNc1ccc(NCCC[N+](C)(C)CCCC)c2c1C(=O)c1ccccc1C2=O [7a]
52%
